Reference source: ChEMBL document CHEMBL1122448

Consider the following compounds and their measured pIC50 readings.
target: Neprilysin (Mus musculus, UniProt Q61391)
Sequence (Q61391 whole entry): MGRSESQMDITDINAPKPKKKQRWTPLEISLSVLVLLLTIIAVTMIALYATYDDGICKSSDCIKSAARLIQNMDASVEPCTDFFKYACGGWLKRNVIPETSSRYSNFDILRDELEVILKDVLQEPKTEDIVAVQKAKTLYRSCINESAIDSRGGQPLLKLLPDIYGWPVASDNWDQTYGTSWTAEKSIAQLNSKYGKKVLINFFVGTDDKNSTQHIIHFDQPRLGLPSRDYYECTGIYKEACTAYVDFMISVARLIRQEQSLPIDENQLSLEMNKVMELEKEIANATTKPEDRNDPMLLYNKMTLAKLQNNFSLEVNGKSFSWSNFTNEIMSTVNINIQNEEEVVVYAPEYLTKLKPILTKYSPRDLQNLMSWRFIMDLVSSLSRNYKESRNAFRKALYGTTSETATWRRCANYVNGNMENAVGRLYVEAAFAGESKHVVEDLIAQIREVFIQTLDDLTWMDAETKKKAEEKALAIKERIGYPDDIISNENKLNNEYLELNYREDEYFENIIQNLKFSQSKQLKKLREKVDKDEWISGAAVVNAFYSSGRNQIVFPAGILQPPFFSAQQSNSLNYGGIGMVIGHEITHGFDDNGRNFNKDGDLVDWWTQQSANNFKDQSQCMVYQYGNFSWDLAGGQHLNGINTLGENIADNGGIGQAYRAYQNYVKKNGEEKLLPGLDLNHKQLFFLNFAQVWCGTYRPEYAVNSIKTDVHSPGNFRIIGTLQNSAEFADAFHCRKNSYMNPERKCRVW
pIC50: −log10 of the molar value. Where a SMILES comes first, the peptide text is derived from it.
quantity_name: pIC50

• CC(C)CC(NC(=O)[C@H](Cc1ccccc1)NCC(=O)O)C(=O)O (single isomer, unassigned) = 4.96
• CC(C)C[C@@H](NC(=O)[C@@H](Cc1ccccc1)NCC(=O)O)C(=O)O = 4.74
• CC(C)CC(NC(=O)C(Cc1ccccc1)C(=O)O)C(=O)O (stereo not given) = 6.15
• CC(C)C[C@H](NC(=O)[C@@H](N)Cc1ccccc1)C(=O)O (H-Phe-Leu-OH) = 4.70
• C[C@H](NC(=O)[C@H](Cc1ccccc1)NCC(=O)O)C(=O)O = 6.30
